Measured on: hCA IX (Homo sapiens)
Construct: gene CA9; recombinant, obtained in-house; tumor-associated transmembrane isoform
Assay method text: stopped-flow CO2 hydration assay, phenol red
Assay type: biochemical
Recorded endpoint: Ki

Name the reported Ki value associated with the compound C[C@]12CC[C@H]3[C@@H](CCC4=CC(=O)CC[C@@]43C)[C@@H]1CC[C@@H]2O [compound 13, Testosterone]
> 100 µM

Name the reported Ki value associated with the compound C[C@]12CC[C@@H](O)C[C@@H]1CC[C@@H]1[C@@H]2CC[C@]2(C)C(=O)CC[C@@H]12 [compound 14, Androsterone]
> 100 µM

Name the reported Ki value associated with the compound C[C@]12CCC(=O)C[C@@H]1CC[C@@H]1[C@@H]2CC[C@]2(C)[C@@H](O)CC[C@@H]12 [compound 16, Androstanolone]
> 100 µM

====

Please go through the items and note down their Ki.
Measured on: hCA II (Homo sapiens, UniProt P00918)
Construct: gene CA2; recombinant, obtained in-house; cytosolic
Assay method text: stopped-flow CO2 hydration assay, phenol red
Type: biochemical
Assay setup: read-out: hCA II
Reply with a number, then the unit it belongs to.

Name the reported Ki value associated with the molecule C[C@]12CC[C@@H]3c4ccc(O)cc4CC[C@H]3[C@@H]1CC[C@H]2O
40.4 µM

Name the reported Ki value associated with the molecule C[C@H](CCC(=O)O)[C@H]1CC[C@H]2[C@@H]3CC[C@@H]4C[C@H](O)CC[C@]4(C)[C@H]3C[C@H](O)[C@]12C
51 µM

Name the reported Ki value associated with the molecule C[C@H](CCC(=O)O)[C@H]1CC[C@H]2[C@@H]3CC[C@@H]4C[C@H](O)CC[C@]4(C)[C@H]3CC[C@]12C
64.5 µM

====

Please go through the items and note down their pKi.
Measured on: hCA IX (Homo sapiens, UniProt Q16790)
Construct: gene CA9; recombinant, obtained in-house; tumor-associated transmembrane isoform
Assay method text: stopped-flow CO2 hydration assay, phenol red
Assay type: biochemical
Assay setup: read-out: hCA IX
Text: stopped-flow CO2 hydration assay, phenol red on hCA IX
// returns pKi (minus log10 of molar concentration), number only

Name the reported pKi value associated with the compound C[C@H](CCC(=O)O)[C@H]1CC[C@H]2[C@@H]3CC[C@@H]4C[C@H](O)CC[C@]4(C)[C@H]3C[C@H](O)[C@]12C
4.26

Name the reported pKi value associated with the compound C[C@H](CCC(=O)O)[C@H]1CC[C@H]2[C@@H]3[C@H](O)C[C@@H]4C[C@H](O)CC[C@]4(C)[C@H]3C[C@H](O)[C@]12C
4.33

Name the reported pKi value associated with the compound C[C@H](CCC(=O)NCCS(=O)(=O)O)[C@H]1CC[C@H]2[C@@H]3[C@@H](O)C[C@@H]4C[C@H](O)CC[C@]4(C)[C@H]3CC[C@]12C
4.37

Name the reported pKi value associated with the compound C[C@H](CCC(=O)NCC(=O)O)[C@H]1CC[C@H]2[C@@H]3[C@@H](O)C[C@@H]4C[C@H](O)CC[C@]4(C)[C@H]3CC[C@]12C
4.05

Name the reported pKi value associated with the compound C[C@H](CCC(=O)O)[C@H]1CC[C@H]2[C@@H]3[C@@H](O)C[C@@H]4C[C@H](O)CC[C@]4(C)[C@H]3CC[C@]12C
4.14

Name the reported pKi value associated with the compound C[C@H](CCC(=O)O)[C@H]1CC[C@H]2[C@@H]3C(=O)C[C@@H]4CC(=O)CC[C@]4(C)[C@H]3CC(=O)[C@]12C [compound 10, Dehydrocholic acid]
4.27

Name the reported pKi value associated with the compound C[C@]12CC[C@@H]3c4ccc(O)cc4CC[C@H]3[C@@H]1CC[C@H]2O
4.30

Name the reported pKi value associated with the compound C[C@H](CCC(=O)O)[C@H]1CC[C@H]2[C@@H]3CC[C@@H]4C[C@H](O)CC[C@]4(C)[C@H]3CC[C@]12C
4.15

Name the reported pKi value associated with the compound C[C@H](CCC(=O)O)[C@H]1CC[C@H]2[C@@H]3[C@H](O)C[C@@H]4C[C@H](O)CC[C@]4(C)[C@H]3CC[C@]12C
4.20

Name the reported pKi value associated with the compound C[C@H](CCC(=O)O)[C@H]1CC[C@H]2[C@@H]3[C@H](O)[C@H](O)[C@@H]4C[C@H](O)CC[C@]4(C)[C@H]3CC[C@]12C
4.14

Name the reported pKi value associated with the compound C[C@]12CC[C@@H]3c4ccc(O)cc4CC[C@H]3[C@@H]1CCC2=O
4.15

Name the reported pKi value associated with the compound C[C@H](CCC(=O)O)[C@H]1CC[C@H]2[C@@H]3C[C@H](O)[C@@H]4C[C@H](O)CC[C@]4(C)[C@H]3CC[C@]12C
4.17
